# Assay Name: qHTS Assay for Enhancers of SMN2 Splice Variant Expression; further: nearly all actives have a fitted effect of over 55% in size
# Assay Conditions: HEK293 SMN2-luciferase splicing reporter, luminescence, 30-36 h; series mostly up to 46.1 µM
The campaign covered roughly 210,000 compounds. About 5,900 (2.8%) were called active. Not shown: some 5% with an inconclusive outcome. The call rests on the fitted dose curve; in most records, active means well fitted activation curve with a large enough effect; inconclusive means small, poorly fitted or top-dose-only effect; inactive means no such curve, though single readings can be large or run the other way. The entries come from a sample that favours actives as a whole.
Response enum: yes (1) = active, no (0) = inactive

QUERY: Recorded call for CC(=O)c1sc(N2C(=O)c3oc4ccccc4c(=O)c3C2c2ccc(C)cc2)nc1C (stereo unspecified) ?
RESULT: no (0)

QUERY: Assay result, entry `O=C(Nc1ccc(Cl)cn1)c1ccc2c(c1)OCCO2` — outcome?
RESULT: yes (1)

QUERY: Field: outcome | Entry: `CCOc1ccc(S(=O)(=O)c2cn(Cc3ccccc3)c3ccc(OCC)cc3c2=O)cc1`
RESULT: no (0)

QUERY: Recorded test call requested for `O=C(Nc1cccc(S(=O)(=O)Nc2ccc(Cl)cc2)c1)c1ccc2c(c1)OCCO2`
RESULT: no (0)

QUERY: Outcome? `C(=N\Nc1ccc2ccccc2n1)/c1ccc2c(c1)OCO2`
RESULT: no (0)

QUERY: Hello, I am checking results. What call was entered for Cc1cccc(C(C)C)c1NC(=O)C(NS(=O)(=O)c1cccc2nsnc12)c1ccccc1 (stereo unspecified) ?
RESULT: no (0)

QUERY: Any idea what this test logged for `Cc1cc(NC(=O)c2cnn3cccnc23)n(-c2ccccc2)n1` ?
RESULT: no (0)

QUERY: Tell me the assay call for `O=C(Nc1ccc(Cl)cn1)c1cnn2cccnc12` please.
RESULT: yes (1)

QUERY: Which outcome was assigned to `COc1ccc(C(=O)NC(=S)Nc2ccc(Cl)cn2)cc1OC` in this test?
RESULT: no (0)

QUERY: Which outcome did this test record for the compound `O=C(O)c1cccc(N=NN2CCCCCC2)c1` ?
RESULT: yes (1)

QUERY: Hi, sorry to bother you, what did the test record for CCCCC(CC)CNC(=O)C1CCN(S(=O)(=O)c2cccc3nsnc23)CC1 (stereo unspecified) ?
RESULT: no (0)

// provenance: PubChem BioAssay AID1458
